Experiment: solvent given as SMILES
Settings: in CC#N
experimental endpoint: absorption maximum (nm)
Provide only the numeric value, understood in nm.

Value lookup for absorption maximum; key = O=P1(c2ccccc2)C(c2ccc(N(c3ccccc3)c3ccccc3)cc2)=Cc2ccccc21 (stereo unspecified)
407

Next:
Value lookup for absorption maximum; key = `N#C[Se]CCCCCOc1ccc2ccc(=O)oc2c1`
321

Value lookup for absorption maximum; key = `Cc1ccc(/C=C/c2ccccc2-[n+]2cc([O-])on2)cc1`
304

Value lookup for absorption maximum; key = `CC(C)(C)c1ccc(-c2nc3c4ccc(-c5cc6ccccc6c6ccccc56)cc4c4cc(-c5cc6ccccc6c6ccccc56)ccc4c3n2-c2ccc(C(C)(C)C)cc2)cc1`
324

Value lookup for absorption maximum; key = `O=C(c1ccc(N(c2ccccc2)c2ccccc2)cc1)[C@H]1[C@H](c2cccs2)C[C@](O)(c2ccccn2)C[C@]1(O)c1ccccn1`
364

Value lookup for absorption maximum; key = `CC(=O)O[B-]1(OC(C)=O)OC(/C=C/c2ccccc2)=CC(/C=C/c2ccccc2)=[O+]1`
422

Value lookup for absorption maximum; key = `COc1cccc2cc(-c3ccc([N+](=O)[O-])cc3)c(=N)oc12`
332

Value lookup for absorption maximum; key = `O=c1c2cc(I)ccc2nc2n1[B-](F)(F)[n+]1ccccc1-2`
345
